All figures here come from PubChem BioAssay (NCI).

Would you kindly list TGI for each of these molecules?
Tested on: MDA-MB-468 breast
Test: NCI tumour cell line growth inhibition, 48 h
Numbers only, in µM.

CC(C)=CCC[C@](C)(O)[C@H]1CC[C@]2(C)[C@@H]1CC[C@@H]1[C@@]3(C)CC[C@H](OC(=O)CCC(=O)O)C(C)(C)[C@@H]3CC[C@]12C | 96.1

For every record below, what is its TGI?
1. NC(=O)c1ccc(-c2c3ccccc3cc3c2ccc2ccccc23)cc1
2. Fc1cc(Nc2ccc3c(OCCCN4CCOCC4)cccc3n2)ccc1Cl

[A]
1. 6.97
2. 4.43

----------
System: MDA-MB-468 breast
Test: NCI tumour cell line growth inhibition, 48 h
Would you kindly list GI50 for each of these compounds?

For every record below, what is its GI50?
1. NC(=O)c1ccc(-c2c3ccccc3cc3c2ccc2ccccc23)cc1
2. COc1ccccc1OCC(O)CO (configuration not stated)
3. Cc1cc(C#Cc2ccccc2)ccc1-n1c(/C=C/c2ccc(O)cc2)nc2ccccc2c1=O
4. Cc1ccc(Nc2ccnc(Nc3cccc(C(N)=O)c3)n2)cc1O
5. Fc1cc(Nc2ccc3c(OCCCN4CCOCC4)cccc3n2)ccc1Cl
6. O=C(O)c1c(Cl)c(Cl)c(Cl)c(Cl)c1-c1c2cc(I)c(=O)c(I)c-2oc2c(I)c(O)c(I)cc12
7. Brc1ccc2[nH]cc(-c3nc(-c4c[nH]c5ccncc45)cs3)c2c1

[A]
1340 nM
> 100000 nM
3780 nM
2620 nM
2080 nM
36900 nM
1770 nM

----------
Test system: MDA-MB-468 breast
Test: NCI tumour cell line growth inhibition, 48 h; in the data active = GI50 below about 0.43 µM; inactive = the rest
Give your call using only these classes: active, inactive

CN1C=CN(Cc2ccc(-c3ccccn3)nc2)[CH-]1.CN1C=CN(Cc2ccc(-c3ccccn3)nc2)[CH-]1.[Au+3] | active
COc1cc(SC)ccc1C(=O)N1CCCC(C)C1 (stereo not given) | inactive
Cc1cc(N=C(N)c2ccccc2)ccc1OCCCCCCCCn1ccnc1 | active
COCCn1cc(-c2csc(-c3c[nH]c4ccc(F)cc34)n2)c2cccnc21 | inactive

Note: attention shifts to another entry.
[Q] # lookup: test call for "O=C(N/N=C\c1cc(Cl)ccc1O)N/N=C/c1cc(Cl)ccc1O"
[A] inactive

----------
Tested on: MDA-MB-468 breast
Test: NCI tumour cell line growth inhibition, 48 h
Would you kindly list TGI for each of these compounds?

COc1cc(SC)ccc1C(=O)N1CCCC(C)C1 (stereo not drawn) | > 100 µM
Fc1ccc(-c2c(-c3ccncc3)n(CCN3CCOCC3)c3cccnc23)cc1 | > 25 µM

Now for the compound whose TGI we want.
[Q] What value of TGI has been recorded for this entry: COc1ccccc1OCC(O)CO (stereo not drawn)
[A] > 100 µM
